Ref: PubChem BioAssay (Tox21)

Test: A CellTox Green Cytotoxicity Assay to monitor cytotoxicity in HepG2 cells - 32 hour (AID 1224883); also: % is scaled to controls: 0 for no effect and ±100 for the full control effect; nearly all actives have a fitted effect of over 50% in size
Conditions: CellTox Green fluorescence; series mostly up to 76.8 µM
Inconclusive results are not listed. Active and inactive are the calls of the source. Calls follow the shape of the dose curve; as a rule, active = well fitted activation curve with a large enough effect in the repeat runs; inconclusive = weak or mixed curves; inactive = flat fitted curve, though single readings scatter.
PROPERTY MEASURED: cytotoxicity increase

Previously resolved entries follow.
{"columns": ["COMPOUND", "cytotoxicity increase"],
 "data": [
  ["CN(C)C(=O)CNC(=O)Cc1ccccc1", "inactive"],
  ["O=S(O)(O)=S", "0.202% [at 6.97 µM] (inactive)"],
  ["Nc1ncnc(Nc2ccccc2)n1", "inactive"],
  ["CC(C)CC(C)CC(C)CC(C)COC(=O)c1ccccc1C(=O)OCC(C)CC(C)CC(C)CC(C)C (stereo unspecified)", "inactive"],
  ["C[C@@H](O)[C@H]1C(=O)N2C(C(=O)O)=C(SCCN=CN)C[C@H]12", "inactive"]
]}

Now for the compound whose cytotoxicity increase we want.
Qu. Provide measured cytotoxicity increase value, entry: Oc1cn2c(n1)Nc1ccc(Cl)c(Cl)c1C2
Ans. -1.99% [at 15.8 µM] (inactive)

---

Experiment: qHTS RealTime-Glo MT Cell Viability Assay in HEK293 cells - 24 hour (AID 1224886); also: top concentration of the series differs between compounds; % is scaled to controls: 0 for no effect and ±100 for the full control effect; nearly all actives have a fitted effect of over 50% in size
Conditions: RealTime-Glo luminescence; series mostly up to 76.8 µM
Results filed as inconclusive are left out. Calls of active or inactive are those of the source. Calls follow the shape of the dose curve; as a rule, active = well fitted cell-killing curve with a large enough effect in the repeat runs; inconclusive = weak or mixed curves, or effect the other way; inactive = flat fitted curve, though single readings scatter.
PROPERTY MEASURED: activity change, negative = cytotoxicity

{"columns": ["COMPOUND STRUCTURE STRING", "activity change, negative = cytotoxicity"],
 "data": [
  ["COc1ccc(-c2cc(=O)c3c(O)cc(O[C@@H]4O[C@H](CO[C@@H]5O[C@@H](C)[C@H](O)[C@@H](O)[C@H]5O)[C@@H](O)[C@H](O)[C@H]4O)cc3o2)cc1O", "inactive"],
  ["O=C1c2ccccc2C(=O)N1CCl", "inactive"],
  ["CC1=C(C(=O)O)N2C(=O)[C@@H](NC(=O)[C@H](N)c3ccc(O)cc3)[C@H]2SC1", "inactive"],
  ["CNS(=O)(=O)CCc1ccc2[nH]cc(C3CCN(C)CC3)c2c1", "inactive"],
  ["O=C(/N=N/C(=O)OCc1ccccc1)OCc1ccccc1", "inactive"]
]}

Qu. Provide measured activity change, negative = cytotoxicity value, entry: CCOCCOCCOCC
Ans. inactive

Qu. Provide measured activity change, negative = cytotoxicity value, entry: CC(=O)N[C@@H](CCC(=O)O)C(=O)O
Ans. inactive

Qu. Provide measured activity change, negative = cytotoxicity value, entry: O=C(O)c1ccc(Cl)cc1Cl
Ans. inactive

---

Target: Estrogen receptor (Homo sapiens)
Experiment: qHTS assay to identify small molecule agonists of the estrogen receptor alpha (ER-alpha) signaling pathway using the BG1 cell line (AID 743079); also: nearly all actives have a fitted effect of over 20% in size; as to activation: % is scaled to controls: 0 for no effect and ±100 for the full control effect
Conditions: BG1Luc4E2 cells, ERE-luciferase agonist, 22 h; series mostly up to 70.3 µM
Inconclusive results are not listed. Calls of active or inactive are those of the source. The call rests on the fitted dose curve; in most records, active means well fitted activation curve with a large enough effect in the repeat runs; inconclusive means weak or mixed curves, or effect the other way; inactive means no such curve, though single readings can be large or run the other way.
Respond only with the outcome that fits, drawn from Y (active), N (inactive)

As a guide, the following entries are already answered.
{"columns": ["COMPOUND", "TARGET", "GROUP LABEL"],
 "data": [
  ["NC(CO)C(=O)NNCc1ccc(O)c(O)c1O (stereo not drawn)", "Estrogen receptor (Homo sapiens)", "N"],
  ["CCCCC(CC)COCCO (stereo not drawn)", "Estrogen receptor (Homo sapiens)", "N"],
  ["Cc1cc(C(C)(C)C)c(O)c(C)c1CC1=NCCN1", "Estrogen receptor (Homo sapiens)", "N"],
  ["C[C@@H](Oc1ccc(CNC(=O)c2cccnc2Oc2ccc3c(c2)OCO3)c(F)c1)C(=O)O", "Estrogen receptor (Homo sapiens)", "N"],
  ["Cc1c(I)c(=O)n(-c2ccccc2)n1C", "Estrogen receptor (Homo sapiens)", "N"]
]}

Qu. Tell me the assay call for Oc1cn2c(n1)Nc1ccc(Cl)c(Cl)c1C2 please.
Ans. N

Qu. Tell me the assay call for C=C(C)C(=O)OCCOP(=O)(O)OCCOC(=O)C(=C)C please.
Ans. N

Qu. Tell me the assay call for O=C(O)CCSSCCC(=O)O please.
Ans. N

Qu. Tell me the assay call for CCCCN please.
Ans. N

Qu. Tell me the assay call for CC(=O)NCc1c(I)c(NC(C)=O)c(I)c(C(=O)O)c1I please.
Ans. Y

Qu. Tell me the assay call for CC(C)C(=O)OCCc1ccccc1 please.
Ans. N

Qu. Tell me the assay call for CCCCNC1CC(C)(C)NC(C)(C)C1 please.
Ans. N

Qu. Tell me the assay call for CC(C)CC(=O)O please.
Ans. N

Qu. Tell me the assay call for O=C(CS(=O)Cc1ccco1)NC/C=C\COc1cc(CN2CCCCC2)ccn1 (stereo not drawn) please.
Ans. N

Qu. Tell me the assay call for CC(C(=O)O)c1ccc2c(c1)CC(=O)c1ccccc1S2 (stereo not drawn) please.
Ans. N

Qu. Tell me the assay call for CC(C)(C)NC(N)=O please.
Ans. N

Qu. Tell me the assay call for CN1CCN(CC(=O)N2c3ccccc3C(=O)Nc3cccnc32)CC1 please.
Ans. N

Qu. Tell me the assay call for Nc1ccc(S(=O)(=O)Nc2ccc(Cl)nn2)cc1 please.
Ans. N

Qu. Tell me the assay call for Cc1ccc(C=O)cc1C please.
Ans. N

Qu. Tell me the assay call for O=S(=O)(O)c1ccc2cc(O)c(S(=O)(=O)O)cc2c1 please.
Ans. N

Qu. Tell me the assay call for O=C1c2ccccc2C(=O)N1CCl please.
Ans. N

Qu. Tell me the assay call for COC(=O)[C@@H]1[C@H]2C[C@H]3c4[nH]c5ccccc5c4CCN3C[C@@H]2CC[C@@H]1O please.
Ans. N

Qu. Tell me the assay call for COCCOCCOCCOCCO please.
Ans. N

Qu. Tell me the assay call for CCOC(=O)c1ccc(OC(=O)CCCCCN=C(N)N)cc1 please.
Ans. Y

Qu. Tell me the assay call for CCCCCCCC/C=C\CCCCCCCC(=O)OCCCC please.
Ans. N

Qu. Tell me the assay call for CC(N)C(=O)OC(C)(C)Cc1ccc(Cl)cc1 (stereo not drawn) please.
Ans. N

Qu. Tell me the assay call for On1nnc2ccccc21 please.
Ans. N

Qu. Tell me the assay call for C=C(C)C1CCC(C)(O)CC1 (stereo not drawn) please.
Ans. N

---

Molecular target: Cytochrome P450 2C9 (Homo sapiens) (UniProt P11712)
Sequence (P11712 whole entry, looked up): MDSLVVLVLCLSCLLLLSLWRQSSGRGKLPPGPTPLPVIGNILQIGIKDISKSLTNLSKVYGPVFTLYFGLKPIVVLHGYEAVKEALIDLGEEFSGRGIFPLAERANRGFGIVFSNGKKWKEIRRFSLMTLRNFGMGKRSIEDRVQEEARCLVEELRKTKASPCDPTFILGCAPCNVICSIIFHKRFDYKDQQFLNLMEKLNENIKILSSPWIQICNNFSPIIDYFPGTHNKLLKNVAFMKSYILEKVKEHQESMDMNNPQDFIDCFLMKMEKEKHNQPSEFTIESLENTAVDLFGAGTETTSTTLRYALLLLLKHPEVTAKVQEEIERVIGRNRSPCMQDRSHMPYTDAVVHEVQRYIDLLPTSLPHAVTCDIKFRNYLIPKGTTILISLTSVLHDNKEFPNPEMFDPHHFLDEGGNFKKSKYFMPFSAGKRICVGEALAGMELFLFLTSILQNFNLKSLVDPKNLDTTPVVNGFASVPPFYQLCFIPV
Experiment: Cytochrome P450 Family 2 Subfamily C Member 9 (CYP2C9) small molecule antagonists: luciferase reporter qHTS assay (AID 1671198); also: nearly all actives have a fitted effect of over 50% in size
Settings: P450-Glo CYP2C9 enzyme assay, luciferin luminescence; series mostly up to 115 µM
Results filed as inconclusive are left out. Active and inactive are the calls of the source. Calls follow the shape of the dose curve; as a rule, active = well fitted inhibition curve with a large enough effect in the repeat runs; inconclusive = weak or mixed curves; inactive = no such curve, though single readings can be large or run the other way.
Respond only with the outcome that fits, drawn from Yes for active, No for inactive

As a guide, the following entries are already answered.
{"columns": ["MOLECULE", "GROUP LABEL"],
 "data": [
  ["N#Cc1ccc(C(=O)O)cc1", "No"],
  ["O=C(CCN1CCN(CCO)CC1)N1c2ccccc2Sc2ccc(C(F)(F)F)cc21", "No"],
  ["CC(C)=CCOC(=O)c1ccccc1", "No"]
]}

Qu. Tell me the assay call for COc1ccc(C2CNC(=O)C2)cc1OC1CCCC1 (configuration not stated) please.
Ans. No

Qu. Tell me the assay call for CCCCCCCCOS(=O)(=O)O please.
Ans. Yes

Qu. Tell me the assay call for CN(CCOc1ccc(NS(C)(=O)=O)cc1)CCc1ccc(NS(C)(=O)=O)cc1 please.
Ans. No

Qu. Tell me the assay call for O=C(OCC1(COC(=O)c2cccnc2)CCCC(COC(=O)c2cccnc2)(COC(=O)c2cccnc2)C1O)c1cccnc1 please.
Ans. Yes

Qu. Tell me the assay call for COc1cc(N)ccc1C please.
Ans. Yes

Qu. Tell me the assay call for CC(C)(C)NC(N)=O please.
Ans. No

Qu. Tell me the assay call for CN(C)c1ccc(C=O)cc1 please.
Ans. Yes

Qu. Tell me the assay call for CCOc1cc([N+](=O)[O-])c(OCC)cc1N1CCOCC1 please.
Ans. Yes

Qu. Tell me the assay call for COc1cc2c(cc1OC)[C@@H]1CC(=O)[C@@H](CC(C)C)CN1CC2 please.
Ans. Yes

---

Test: qHTS assay to test for compound auto fluorescence at 460 nm (blue) in HepG2 cells (AID 720687); also: % is scaled to controls: 0 for no effect and ±100 for the full control effect
Settings: autofluorescence 405/460 nm, 1 h; series mostly up to 91.3 µM
Calls of active or inactive are those of the source. Calls follow the shape of the dose curve; as a rule, active = well fitted curve in the direction sought with a large enough effect in the repeat runs; inconclusive = weak or mixed curves; inactive = flat fitted curve, though single readings scatter.
PROPERTY MEASURED: fluorescence, % of fluorescent control

Previously resolved entries follow.
{"columns": ["COMPOUND STRUCTURE STRING", "PROPERTY MEASURED", "TEST RESULT"],
 "data": [
  ["O=C(O)c1cc(Cl)cc([N+](=O)[O-])c1Cl", "fluorescence, % of fluorescent control", "inactive"],
  ["CC(C)(C)NC(N)=O", "fluorescence, % of fluorescent control", "inactive"],
  ["CNC(=O)[C@H]1O[C@@H](n2cnc3c(NCc4cc(Cl)ccc4OCc4cc(C)no4)ncnc32)[C@H](O)[C@@H]1N", "fluorescence, % of fluorescent control", "inactive"],
  ["O=C1c2ccccc2C(=O)C1c1ccccc1", "fluorescence, % of fluorescent control", "-0.0075% [at 18.6 µM] (inactive)"]
]}

Qu. Provide measured fluorescence, % of fluorescent control value, entry: CCCCCCN
Ans. inactive

Qu. Provide measured fluorescence, % of fluorescent control value, entry: O=Cc1ccc(Cl)c(Cl)c1
Ans. inactive
